Just for reference, ChEMBL document CHEMBL1765016 is where these values come from.

Read-out record for Human immunodeficiency virus type 1 reverse transcriptase (Human immunodeficiency virus 1): IC50

Smiles representation	IC50 / nM
Cc1cc(C)cc(S(=O)(=O)c2c(C(=O)NCCn3cccc3)[nH]c3ccc(Cl)c(F)c23)c1	18
Cc1cc(C)cc(S(=O)(=O)c2c(C(=O)NCCn3cccc3)[nH]c3ccc(Cl)cc23)c1	14
Cc1cc(C)cc(S(=O)(=O)c2c(C(=O)NCc3ccccc3)[nH]c3ccc([N+](=O)[O-])cc23)c1	17
Cc1cc(C)cc(S(=O)(=O)c2c(C(=O)NCN3CCCC3)[nH]c3ccc(Br)cc23)c1	8
Cc1cc(C)cc(S(=O)(=O)c2c(C(=O)NCCOc3ccccc3)[nH]c3ccc(Cl)cc23)c1	2390
Cc1cc(C)cc(S(=O)(=O)c2c(C(=O)NCN3CCCC3)[nH]c3ccc([N+](=O)[O-])cc23)c1	34
Cc1cc(C)cc(S(=O)(=O)c2c(C(=O)NCCOc3ccccc3)[nH]c3ccc(Cl)c(F)c23)c1	66
Cc1cc(C)cc(S(=O)(=O)c2c(C(=O)NCCN3CCCC3)[nH]c3ccc(Br)cc23)c1	65
Cc1cc(C)cc(S(=O)(=O)c2c(C(=O)NCCN3CCOCC3)[nH]c3ccc(Cl)c(F)c23)c1	711
Cc1cc(C)cc(S(=O)(=O)c2c(C(=O)NCCOc3ccccc3)[nH]c3ccc([N+](=O)[O-])cc23)c1	950
Cc1cc(C)cc(S(=O)(=O)c2c(C(=O)NCN3CCOCC3)[nH]c3ccc([N+](=O)[O-])cc23)c1	150
Cc1cc(C)cc(S(=O)(=O)c2c(C(=O)NCCc3ccccc3)[nH]c3ccc(Cl)cc23)c1	77
Cc1cc(C)cc(S(=O)(=O)c2c(C(=O)NCN3CCCC3)[nH]c3ccc(Cl)cc23)c1	12
Cc1cc(C)cc(S(=O)(=O)c2c(C(=O)NCN3CCOCC3)[nH]c3ccc(Cl)c(F)c23)c1	80
Cc1cc(C)cc(S(=O)(=O)c2c(C(=O)NCN3CCOCC3)[nH]c3ccc(Br)cc23)c1	168
Cc1cc(C)cc(S(=O)(=O)c2c(C(=O)NCN3CCCCC3)[nH]c3ccc(Br)cc23)c1	30
Cc1cc(C)cc(S(=O)(=O)c2c(C(=O)NCCOc3ccccc3)[nH]c3ccc(Br)cc23)c1	4720
Cc1cc(C)cc(S(=O)(=O)c2c(C(=O)NCCc3ccccc3)[nH]c3ccc(Br)cc23)c1	128
Cc1cc(C)cc(S(=O)(=O)c2c(C(=O)NCCN3CCOCC3)[nH]c3ccc(Br)cc23)c1	63
Cc1cc(C)cc(S(=O)(=O)c2c(C(=O)NCCN3CCOCC3)[nH]c3ccc(Cl)cc23)c1	99
Cc1cc(C)cc(S(=O)(=O)c2c(C(=O)NCCN3CCOCC3)[nH]c3ccc([N+](=O)[O-])cc23)c1	55
Cc1cc(C)cc(S(=O)(=O)c2c(C(=O)NCN3CCCCC3)[nH]c3ccc(Cl)cc23)c1	8
Cc1cc(C)cc(S(=O)(=O)c2c(C(=O)NCCN3CCCC3)[nH]c3ccc(Cl)c(F)c23)c1	158
Cc1cc(C)cc(S(=O)(=O)c2c(C(=O)NCc3ccccc3)[nH]c3ccc(Cl)c(F)c23)c1	40

====

List of log10 IC50 values.
target: Human immunodeficiency virus type 1 reverse transcriptase (Human immunodeficiency virus 1, UniProt Q72547, K103N); assay: Inhibition of HIV1 reverse transcriptase K103N mutant expressed in Escherichia coli assessed as incorporation of [3H]dTTP into poly(rA)/oligo(dT) by scintillation counting
Measure: log10 IC50 (log10 of the value in nM)

Smiles representation	log10 IC50
Cc1cc(C)cc(S(=O)(=O)c2c(C(=O)NCN3CCOCC3)[nH]c3ccc(Cl)cc23)c1	2.71
Cc1cc(C)cc(S(=O)(=O)c2c(C(=O)NCN3CCCC3)[nH]c3ccc(Br)cc23)c1	1.83
Cc1cc(C)cc(S(=O)(=O)c2c(C(=O)NCc3ccccc3)[nH]c3ccc(Br)cc23)c1	3.27
Cc1cc(C)cc(S(=O)(=O)c2c(C(=O)NCCN3CCCC3)[nH]c3ccc(Cl)c(F)c23)c1	3.38
Cc1cc(C)cc(S(=O)(=O)c2c(C(=O)NCN3CCCCC3)[nH]c3ccc([N+](=O)[O-])cc23)c1	2.49
Cc1cc(C)cc(S(=O)(=O)c2c(C(=O)NCCN3CCOCC3)[nH]c3ccc(Cl)cc23)c1	3.82
Cc1cc(C)cc(S(=O)(=O)c2c(C(=O)NCCN3CCCC3)[nH]c3ccc([N+](=O)[O-])cc23)c1	3.13

====

assay: Cytotoxicity against human CEM cells by coulter counter analysis; type: cell-based; details: CEM (CCRF-CEM) cells
Recorded CC50, one value per entry.
Measure: CC50 (µM)

Smiles representation	Unit label	Lt gt eq	Readout value
Cc1cc(C)cc(S(=O)(=O)c2c(C(=O)NCCc3ccccc3)[nH]c3ccc(Cl)cc23)c1	µM	=	185
Cc1cc(C)cc(S(=O)(=O)c2c(C(=O)NCCc3ccccc3)[nH]c3ccc(Br)cc23)c1	µM	=	409
Cc1cc(C)cc(S(=O)(=O)c2c(C(=O)NCCN3CCOCC3)[nH]c3ccc(Br)cc23)c1	µM	=	409
O=C1Nc2ccc(Cl)cc2[C@@](C#CC2CC2)(C(F)(F)F)O1	µM	>	10000
Cc1cc(C)cc(S(=O)(=O)c2c(C(=O)NCN3CCCC3)[nH]c3ccc(Br)cc23)c1	µM	=	9.6
Cc1cc(C)cc(S(=O)(=O)c2c(C(=O)NCCn3cccc3)[nH]c3ccc(Cl)cc23)c1	µM	=	54

====

biological target: Human immunodeficiency virus type 1 reverse transcriptase (Human immunodeficiency virus 1, UniProt Q72547)
pIC50: −log10 of the molar value.

Smiles representation	pIC50
Cc1cc(C)cc(S(=O)(=O)c2c(C(=O)NCCc3ccccc3)[nH]c3ccc([N+](=O)[O-])cc23)c1	7.22
Cc1cc(C)cc(S(=O)(=O)c2c(C(=O)NCc3ccccc3)[nH]c3ccc(Cl)cc23)c1	7.68
Cc1cc(C)cc(S(=O)(=O)c2c(C(=O)NCc3ccccc3)[nH]c3ccc(Br)cc23)c1	5.98
Cc1cc(C)cc(S(=O)(=O)c2c(C(=O)NCCN3CCCC3)[nH]c3ccc(Cl)cc23)c1	7.10
Cc1cc(C)cc(S(=O)(=O)c2c(C(=O)NCCN3CCCC3)[nH]c3ccc([N+](=O)[O-])cc23)c1	6.55
Cc1cc(C)cc(S(=O)(=O)c2c(C(=O)NCCn3cccc3)[nH]c3ccc([N+](=O)[O-])cc23)c1	7.47
Cc1cc(C)cc(S(=O)(=O)c2c(C(=O)NCN3CCCCC3)[nH]c3ccc([N+](=O)[O-])cc23)c1	7.89
Cc1cc(C)cc(S(=O)(=O)c2c(C(=O)NCN3CCOCC3)[nH]c3ccc(Cl)cc23)c1	7.27

====

experiment: Cytotoxicity against human CEM cells by coulter counter analysis; assay type: cell-based; details: CEM (CCRF-CEM) cells
log10 CC50 for assorted molecules
Measure: log10 CC50 (log10 of the value in µM)

Smiles representation	Readout value
Cc1cc(C)cc(S(=O)(=O)c2c(C(=O)NCCOc3ccccc3)[nH]c3ccc(Cl)cc23)c1	2.32
Cc1cc(C)cc(S(=O)(=O)c2c(C(=O)NCN3CCOCC3)[nH]c3ccc(Cl)c(F)c23)c1	1.58
Cc1cc(C)cc(S(=O)(=O)c2c(C(=O)NCCN3CCOCC3)[nH]c3ccc([N+](=O)[O-])cc23)c1	1.62
Cc1cc(C)cc(S(=O)(=O)c2c(C(=O)NCc3ccccc3)[nH]c3ccc(Cl)cc23)c1	2.39
Cc1cc(C)cc(S(=O)(=O)c2c(C(=O)NCN3CCOCC3)[nH]c3ccc(Br)cc23)c1	1.54
Cc1cc(C)cc(S(=O)(=O)c2c(C(=O)NCc3ccccc3)[nH]c3ccc([N+](=O)[O-])cc23)c1	0.90

====

molecular target: Human immunodeficiency virus type 1 reverse transcriptase (Human immunodeficiency virus 1, UniProt Q72547, K103N); assay: Inhibition of HIV1 reverse transcriptase K103N mutant expressed in Escherichia coli assessed as incorporation of [3H]dTTP into poly(rA)/oligo(dT) by scintillation counting
pIC50: −log10 of the molar value.
Examples of compounds with documented pIC50 follow.
Measure: pIC50

Smiles representation	Lt gt eq	Readout value
Cc1cc(C)cc(S(=O)(=O)c2c(C(=O)NCc3ccccc3)[nH]c3ccc([N+](=O)[O-])cc23)c1	=	6.34
Cc1cc(C)cc(S(=O)(=O)c2c(C(=O)NCN3CCCC3)[nH]c3ccc([N+](=O)[O-])cc23)c1	=	6.54
Cc1cc(C)cc(S(=O)(=O)c2c(C(=O)NCc3ccccc3)[nH]c3ccc(Cl)c(F)c23)c1	=	6.84
Cc1cc(C)cc(S(=O)(=O)c2c(C(=O)NCCN3CCOCC3)[nH]c3ccc(Cl)c(F)c23)c1	=	5.20
Cc1cc(C)cc(S(=O)(=O)c2c(C(=O)NCN3CCOCC3)[nH]c3ccc(Cl)c(F)c23)c1	=	5.93
Cc1cc(C)cc(S(=O)(=O)c2c(C(=O)NCCOc3ccccc3)[nH]c3ccc(Cl)cc23)c1	<	4.40
Cc1cc(C)cc(S(=O)(=O)c2c(C(=O)NCCOc3ccccc3)[nH]c3ccc(Cl)c(F)c23)c1	=	4.73
Cc1cc(C)cc(S(=O)(=O)c2c(C(=O)NCN3CCOCC3)[nH]c3ccc(Br)cc23)c1	=	6.06
